Molecular target: Estrogen receptor (Homo sapiens) (UniProt P03372)
Sequence (P03372 whole entry, looked up): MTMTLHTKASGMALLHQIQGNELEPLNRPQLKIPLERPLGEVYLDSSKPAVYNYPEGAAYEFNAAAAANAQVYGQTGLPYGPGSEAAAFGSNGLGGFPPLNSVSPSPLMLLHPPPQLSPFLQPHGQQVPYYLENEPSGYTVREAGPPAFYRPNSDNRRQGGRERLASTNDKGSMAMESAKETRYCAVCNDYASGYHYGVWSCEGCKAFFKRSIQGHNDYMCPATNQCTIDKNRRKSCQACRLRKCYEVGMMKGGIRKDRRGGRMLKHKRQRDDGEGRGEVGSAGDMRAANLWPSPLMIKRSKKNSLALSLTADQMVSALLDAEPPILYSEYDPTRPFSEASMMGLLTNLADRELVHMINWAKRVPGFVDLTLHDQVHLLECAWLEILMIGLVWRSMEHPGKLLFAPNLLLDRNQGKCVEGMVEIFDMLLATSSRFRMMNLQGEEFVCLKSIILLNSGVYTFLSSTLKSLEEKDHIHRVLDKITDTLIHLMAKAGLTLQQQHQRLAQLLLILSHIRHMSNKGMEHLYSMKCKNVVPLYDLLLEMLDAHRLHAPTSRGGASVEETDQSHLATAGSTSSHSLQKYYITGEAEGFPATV
Test: qHTS assay to identify small molecule agonists of the estrogen receptor alpha (ER-alpha) signaling pathway using the BG1 cell line (AID 743079); also: nearly all actives have a fitted effect of over 20% in size
Conditions: BG1Luc4E2 cells, ERE-luciferase agonist, 22 h; series mostly up to 70.3 µM
Inconclusive results are not listed. Activity calls are given as the source filed them. Calls follow the shape of the dose curve; as a rule, active = well fitted activation curve with a large enough effect in the repeat runs; inconclusive = weak or mixed curves, or effect the other way; inactive = no such curve, though single readings can be large or run the other way.
Choose the fitting class; nothing outside active, inactive is accepted.

Query: // param item: Cn1ccc2cc3c(cc21)CCN3C(=O)Nc1cccnc1 ; yields the recorded call
Reply: active

Query: Field entry: NS(=O)(=O)c1cc2c(cc1Cl)NC(CSCc1ccccc1)=NS2(=O)=O
Reply: inactive

Query: Field entry: COC(=O)CCCC(=O)O
Reply: inactive

Query: Field entry: CN1[C@@H]2CC[C@H]1CC(NC(=O)n1c(=O)[nH]c3ccccc31)C2 (stereo partly drawn)
Reply: inactive

Query: Field entry: COCCOC(=O)CC#N
Reply: inactive

Query: Field entry: O=Cc1ccccc1[N+](=O)[O-]
Reply: inactive

Query: Field entry: CCCCCCCCC=O
Reply: inactive

Query: Field entry: CC(=O)OC(C)(C)C
Reply: inactive

Query: Field entry: COc1ccc(N=[N+]([O-])c2ccc(OC)cc2)cc1
Reply: active

Query: Field entry: O=C1OC(=O)c2cc([N+](=O)[O-])ccc21
Reply: inactive

Query: Field entry: CCCCCOC(=O)Nc1nc(=O)n([C@@H]2O[C@H](C)[C@@H](O)[C@H]2O)cc1F
Reply: inactive

Query: Field entry: Cc1ncc(CSSCc2cnc(C)c(O)c2CO)c(CO)c1O
Reply: inactive

Query: Field entry: COCc1ccc(COC)cc1
Reply: inactive
